Data origin, for the record: paper PMC9304779

Molecular target: SulA (cysteate acyl-ACP transferase) (Alistipes finegoldii, UniProt I3YKQ4)
Construct: gene Alfi_1224
Sequence (I3YKQ4 1-423): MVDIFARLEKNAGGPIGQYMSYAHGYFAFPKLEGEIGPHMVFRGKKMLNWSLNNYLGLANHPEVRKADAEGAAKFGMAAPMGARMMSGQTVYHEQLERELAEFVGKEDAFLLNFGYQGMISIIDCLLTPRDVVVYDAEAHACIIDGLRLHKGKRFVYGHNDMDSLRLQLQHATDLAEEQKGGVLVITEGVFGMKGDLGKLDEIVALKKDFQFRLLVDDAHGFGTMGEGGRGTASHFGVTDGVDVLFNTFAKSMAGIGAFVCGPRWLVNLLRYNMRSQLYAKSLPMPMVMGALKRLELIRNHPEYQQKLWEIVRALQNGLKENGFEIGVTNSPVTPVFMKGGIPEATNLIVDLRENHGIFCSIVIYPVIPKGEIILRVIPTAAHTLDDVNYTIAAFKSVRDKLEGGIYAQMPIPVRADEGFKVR
Test: UV-Vis spectral titration (external aldimine, A430)
Format: binding
property.measured: Kd (mM)
// note: answer is a bare numeric in mM

Problem: Sample N[C@@H](CS(=O)(=O)O)C(=O)O [cysteate] — what was its Kd?
Result: 4.86
